Could you please report measured Ratio ant/agonist for the items listed next?
# test-target: dopamine autoreceptor (Rattus norvegicus, UniProt P61169)
# Construct: homogenized rat striatal brain tissue; from tissue; host or cells: rat striatal brain tissue homogenate
# Sequence (P61169 whole entry): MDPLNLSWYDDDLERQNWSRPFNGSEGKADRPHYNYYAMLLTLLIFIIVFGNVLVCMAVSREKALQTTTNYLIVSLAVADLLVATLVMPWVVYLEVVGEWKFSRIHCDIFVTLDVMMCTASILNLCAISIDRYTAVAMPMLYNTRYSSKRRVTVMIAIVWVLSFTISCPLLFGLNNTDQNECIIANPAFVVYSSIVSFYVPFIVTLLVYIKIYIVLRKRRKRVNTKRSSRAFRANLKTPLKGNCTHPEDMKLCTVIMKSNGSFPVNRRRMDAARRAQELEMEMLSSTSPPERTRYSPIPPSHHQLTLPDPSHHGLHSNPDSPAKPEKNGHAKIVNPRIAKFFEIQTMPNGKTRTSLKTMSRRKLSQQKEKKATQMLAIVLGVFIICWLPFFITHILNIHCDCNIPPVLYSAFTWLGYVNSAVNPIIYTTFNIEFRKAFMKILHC
# experiment-notes: Dopamine autoreceptor affinity, 3H-quinpirole binding in homogenized rat striatal brain tissue
# test-context: ratio of D2 Spiper IC50 to D2 Quin. IC50 (LowAg/HighAg, predicts intrinsic activity)
Numbers only.

# annotated cases, reported Ratio ant/agonist shown
[
  {
    "smiles": "Clc1ccc(OCCNCc2cccs2)c2c(Cl)c[nH]c12",
    "Ratio ant/agonist": 18
  },
  {
    "smiles": "O=C(c1c[nH]c2cccc(OCCNCc3ccccc3)c12)C(F)(F)F",
    "Ratio ant/agonist": 48
  },
  {
    "smiles": "Clc1ccc(OCCNCc2ccccc2)c2cc[nH]c12",
    "Ratio ant/agonist": 12
  },
  {
    "smiles": "Clc1ccc(OCCNCc2ccccc2)c2c(Cl)c[nH]c12",
    "Ratio ant/agonist": 21
  },
  {
    "smiles": "c1ccc(CCCCNCCOc2cccc3[nH]ccc23)cc1",
    "Ratio ant/agonist": 18
  }
]

Dear colleague, could you send me Ratio ant/agonist for each of the items below? Thanks.
1. c1ccc(CNCCOc2cccc3[nH]ccc23)cc1
2. Clc1c[nH]c2cccc(OCCNCCCCc3ccccc3)c12

1: 26; 2: 20
